Recorded composite z-score, one value per entry.
# test.name: small-molecule microarray binders of probe aWnt5a, primary screen, biochemical, biotinylated probe, 635/667 nm fluorescence (AID 1113);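 also: score merges 667 nm fluorescence intensity with signal-to-noise per printed feature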
# assay.context: higher = more signal
observable: composite z-score

{"molecule": "CN(C)C(=O)[C@]1(CCC(=O)OC(C)(C)C)N=C(c2ccc(OCCCO)cc2)O[C@@H]1c1ccccc1N=[N+]=[N-]", "number": 0.173}
{"molecule": "C=CC(=C)C1=CCO[C@@H]1[C@H]1CCCN1S(=O)(=O)c1ccccc1[N+](=O)[O-]", "number": -0.101}
{"molecule": "NCCCCCNC(=O)[C@H]1C[C@H]2C(=O)NCC(=O)N2[C@H]1c1cccc(OCCO)c1", "number": -0.157}
{"molecule": "COCCCNC(=O)[C@@]1(CCC(=O)OC(C)(C)C)N=C(c2ccc(OCCCO)cc2)O[C@H]1c1ccccc1CN=[N+]=[N-]", "number": 0.112}
{"molecule": "C=CCNC(=O)[C@H]1[C@@H]2C(=O)O[C@@H](c3ccccc3)[C@@H](c3ccccc3)N2[C@@H](c2ccc(O)cc2)[C@]12C(=O)N(C(=O)OCCOC)c1ccc(C#CCCO)cc12", "number": -0.185}
{"molecule": "CCOC(=O)C[C@H]1[C@H](OC(=O)c2ccc(-c3ccccc3)cc2)[C@@H](NC(=O)Cc2ccc(OC)cc2)c2cc(OCCCO)ccc2N1C(=O)c1ccc2ccccc2n1", "number": 0.0068}
{"molecule": "CCCCCCCCCCC(O)C1C=CC2C(=O)N(Cc3ccccc3)C(=O)C2N1n1cnnc1 (stereo not drawn)", "number": 0.147}
{"molecule": "COc1ccc(CCNC(=O)[C@@]2(c3ccc([N+](=O)[O-])cc3)CC(=O)N(CC34CC5CC(CC(C5)C3)C4)[C@@H]2c2ccc(CO)cc2)cc1", "number": -0.0202}
{"molecule": "CCCN1C(=O)[C@@]2(CCC(=O)OC(C)(C)C)N=C(c3ccc(OCCCO)cc3)O[C@H]2c2ccccc21", "number": 0.0044}
{"molecule": "O=C1O[C@H](c2ccccc2)[C@H](c2ccccc2)N2[C@H]1[C@@H](C(=O)N1CCN(c3ncccn3)CC1)[C@]1(C(=O)Nc3ccccc31)[C@H]2c1ccc(OCCO)cc1", "number": -0.0286}
{"molecule": "COC(=O)C(CC#Cc1ccc2c(c1)[C@]1(C(=O)N2)[C@H](C(=O)NC[C@H](O)c2ccccc2)[C@H]2C(=O)O[C@H](c3ccccc3)[C@H](c3ccccc3)N2[C@@H]1c1ccc(OCCO)cc1)C(=O)OC", "number": 0.174}
{"molecule": "CC(C)=CCCC(C)=CC(O)C1C=CC2C(=O)N(c3ccccc3)C(=O)C2N1Nc1ccccc1 (stereo not drawn)", "number": 0.139}
{"molecule": "CN1CCC(CCCO)=CC1c1ccc(CN2CCCC2)cc1 (stereo not drawn)", "number": 0.0215}
{"molecule": "N[C@@H](Cc1ccccc1)Cn1cc(-c2ccccc2)nn1", "number": -0.027}
{"molecule": "CS(=O)(=O)CCOC(=O)C1=CC(c2ccc(CO)cc2)=CC(C2CC2)N(Cc2cc3c(cc2Br)OCO3)C=C1C(=O)OCCS(C)(=O)=O (stereo not drawn)", "number": -0.0124}
{"molecule": "CC1CC/C=C\\[C@H]2OC34C=CCN(Cc5ccccc5)C(=O)[C@H]3N(CCCCCO)C(=O)[C@@H]4C2C(=O)O1 (stereo partly drawn)", "number": -0.0981}
{"molecule": "COCCCNC(=O)[C@@]1(c2ccc([N+](=O)[O-])cc2)CC(=O)N(CC23CC4CC(CC(C4)C2)C3)[C@@H]1c1ccc(CO)cc1", "number": -0.109}
{"molecule": "CCOC(=O)C1=CCC(c2ccc(C#N)cc2)N(S(=O)(=O)c2ccc(C)cc2)C1 (stereo not drawn)", "number": -0.117}
{"molecule": "CC(C)C[C@@H]1NC(=O)[C@H]2C[C@@H](C(=O)NCCCCCCNC(=O)CS)[C@@H](c3cccc(OCCO)c3)N2C1=O", "number": -0.001}
{"molecule": "Cc1ccc(S[C@]2(C(=O)NCc3ccccc3)CC(=O)N(Cc3ccccc3)[C@@H]2c2ccc(CO)cc2)cc1", "number": -0.0395}
{"molecule": "COC(=O)c1ccc(C(O)C2C=CC3C(=O)N(C)C(=O)C3N2NC(=O)OC(C)(C)C)o1 (stereo not drawn)", "number": 0.112}
{"molecule": "CC(C)(C)OC(=O)CC[C@@]1(C(=O)O)N=C(c2ccc(OCCCO)cc2)O[C@@H]1c1ccccc1N=[N+]=[N-]", "number": 0.0711}
{"molecule": "COCCOC(=O)N1C(=O)[C@@]2(c3cc(C#CC4(O)CCCCCC4)ccc31)[C@H](C(=O)N1CCCCCCC1)[C@H]1C(=O)O[C@H](c3ccccc3)[C@H](c3ccccc3)N1[C@@H]2c1ccccc1OCCO", "number": 0.265}
